TARGET ENTITY: Mitogen-activated protein kinase kinase kinase 3 (Homo sapiens) (UniProt Q99759)
Sequence (Q99759 whole entry, looked up): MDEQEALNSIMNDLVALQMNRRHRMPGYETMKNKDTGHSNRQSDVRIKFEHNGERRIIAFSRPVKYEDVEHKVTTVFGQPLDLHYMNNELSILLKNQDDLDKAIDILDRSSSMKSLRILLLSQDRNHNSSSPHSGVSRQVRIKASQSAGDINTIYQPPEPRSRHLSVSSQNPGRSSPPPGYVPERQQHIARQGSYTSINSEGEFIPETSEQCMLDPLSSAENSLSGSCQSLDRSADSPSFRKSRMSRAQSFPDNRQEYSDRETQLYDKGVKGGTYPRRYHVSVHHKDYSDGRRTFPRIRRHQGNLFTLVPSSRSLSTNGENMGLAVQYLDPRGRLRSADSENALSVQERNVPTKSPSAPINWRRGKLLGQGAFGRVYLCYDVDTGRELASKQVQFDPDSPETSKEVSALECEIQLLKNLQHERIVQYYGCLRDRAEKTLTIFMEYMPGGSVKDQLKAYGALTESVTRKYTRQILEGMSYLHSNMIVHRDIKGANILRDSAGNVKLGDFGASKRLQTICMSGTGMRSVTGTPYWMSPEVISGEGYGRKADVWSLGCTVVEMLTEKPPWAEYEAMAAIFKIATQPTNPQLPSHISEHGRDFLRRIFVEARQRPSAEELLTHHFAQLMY
METHOD NOTES: blockers of MEK5-MEKK3 PB1 association – biochemical, bead multiplex flow cytometry, single concentration, wildtype, confirmation (AID 1894);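 also: 100% = DMSO only wells and 0% = binding blocked by excess unlabeled MEK5; lower values mean stronger disruption of MEK5 binding to MEKK3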
PARTICULARS: Alexa488-MEK5 binding to MEKK3, at 10 µM, hits give low values
In all, about 5,900 compounds went through this assay and about 100 (1.7%) were called active. The entries come from a sample that favours actives as a whole.
Measured binding response (% of control), listed per entry.

Examples with answers:
CNC(C)C#Cc1ccc2sc3cc(OC)c(OC)cc3c(=O)c2c1 (stereo unspecified) = 104% (inactive)
COc1cccc(/C=N\NC(=O)C2=NNC(=O)C2C)c1O (stereo unspecified) = 100% (inactive)
CCN(CC)C(=O)CC(c1ccc2c(c1)OCO2)c1c(OC)cc(OC)c2c(-c3ccccc3)cc(=O)oc12 (stereo unspecified) = 103% (inactive)

Query: Could you share which binding response (% of control) value was measured for CCOC(=O)c1c(NC(=O)c2ccc(S(=O)(=O)N(C)CC3CCCO3)cc2)sc2c1CC(C)(C)NC2(C)C (stereo unspecified) ?
Reply: 99% (inactive)

Query: Could you share which binding response (% of control) value was measured for O=c1c(/C=N/O)coc2ccc(Cl)cc12 ?
Reply: 101% (inactive)

Query: Could you share which binding response (% of control) value was measured for O=C(c1ccco1)N1CCN(c2cccc(Cl)c2)CC1 ?
Reply: 100% (inactive)
